methodSummary: Selectivity index, ratio of IC50 for HEK293 cells to IC50 for bloodstream form of Trypanosoma brucei brucei Lister 427
Assay type: toxicity
protocolConditions: human, read-out: Ratio IC50
Kindly return T if reported selectivity ratio is no lower than 10; return F if it is lower.

Has Cc1ccc(C(F)(F)F)cc1COc1cc(NC(=O)c2ccc(C(F)(F)F)cc2C(F)(F)F)ccc1N(C)S(C)(=O)=O a recorded selectivity ratio greater than or equal to 10?
F

Has CN(c1ccc(NC(=O)c2ccc(C(F)(F)F)cc2C(F)(F)F)cc1OCc1ccccc1C(F)(F)F)S(C)(=O)=O a recorded selectivity ratio greater than or equal to 10?
F

Has CN(c1ccc(NC(=O)c2ccc(C(F)(F)F)cc2C(F)(F)F)cc1OCc1ccccc1C(F)(F)F)S(=O)(=O)Cc1ccccc1 a recorded selectivity ratio greater than or equal to 10?
T

Has CN(c1ccc(NC(=O)c2cc(C(F)(F)F)cc(C(F)(F)F)c2)cc1OCc1ccccc1C(F)(F)F)S(C)(=O)=O a recorded selectivity ratio greater than or equal to 10?
T

Has CN(c1ccc(NC(=O)c2ccc(C(F)(F)F)cc2C(F)(F)F)cc1OCc1cccc(C(F)(F)F)c1)S(=O)(=O)Cc1ccccc1 a recorded selectivity ratio greater than or equal to 10?
T

Has Cc1ccc(C)c(COc2cc(Nc3nccc(N)n3)ccc2N(C)S(C)(=O)=O)c1 a recorded selectivity ratio greater than or equal to 10?
T

Has CN(c1ccc(NC(=O)c2cc(C(F)(F)F)cc(C(F)(F)F)c2)cc1OCc1cccc(C(=N)N)c1)S(C)(=O)=O a recorded selectivity ratio greater than or equal to 10?
T

Has CN(c1ccc(NC(=O)c2cc(C(F)(F)F)cc(C(F)(F)F)c2)cc1OCc1ccc(C(F)(F)F)cc1)S(=O)(=O)Cc1ccccc1 a recorded selectivity ratio greater than or equal to 10?
T

Has CCCCCCOc1cc(NC(=O)c2cc(C(F)(F)F)cc(C(F)(F)F)c2)ccc1N(C)S(C)(=O)=O a recorded selectivity ratio greater than or equal to 10?
T

Has CN(c1ccc(NC(=O)c2cc(C(F)(F)F)cc(C(F)(F)F)c2)cc1OCc1ccccc1C(F)(F)F)S(=O)(=O)Cc1ccccc1 a recorded selectivity ratio greater than or equal to 10?
T

Has CN(c1ccc(NC(=O)c2cc(C(F)(F)F)cc(C(F)(F)F)c2)cc1OCc1cccc(C(F)(F)F)c1)S(=O)(=O)Cc1ccccc1 a recorded selectivity ratio greater than or equal to 10?
T

Has CN(c1ccc(NC(=O)c2ccc(C#N)cc2)cc1OCc1ccc(C(F)(F)F)cc1)S(=O)(=O)Cc1ccccc1 a recorded selectivity ratio greater than or equal to 10?
T

Has Cc1ccc(C(F)(F)F)cc1COc1cc(NC(=O)c2cc(C(F)(F)F)cc(C(F)(F)F)c2)ccc1N(C)S(C)(=O)=O a recorded selectivity ratio greater than or equal to 10?
T

Has CCCCCCOc1cc(NC(=O)c2ccc(C(F)(F)F)cc2C(F)(F)F)ccc1N(C)S(C)(=O)=O a recorded selectivity ratio greater than or equal to 10?
T

Has CCCCCCOc1cc(NC(=O)c2cc(C(F)(F)F)cc(C(F)(F)F)c2)ccc1N(C)S(=O)(=O)Cc1ccccc1 a recorded selectivity ratio greater than or equal to 10?
F
